Target system: CIB1 and αIIb interaction (GST-CIB1 : F-αIIb peptide) (Homo sapiens, UniProt Q99828)
Construct: made in house; host or cells: BL-21 plus RIL cells (E. coli)
Sequence (Q99828 1-191): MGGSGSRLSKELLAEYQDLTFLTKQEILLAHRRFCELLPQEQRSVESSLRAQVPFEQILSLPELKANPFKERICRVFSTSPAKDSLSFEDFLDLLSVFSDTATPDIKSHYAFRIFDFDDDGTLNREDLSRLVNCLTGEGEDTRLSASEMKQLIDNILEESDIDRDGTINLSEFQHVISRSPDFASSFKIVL
Assay remarks: FP assay, 384-well format (screen)
Format: binding
Design: concentration or dose not given beside the values
Cond: F-αIIb peptide
Reported values of 384-well SCREEN Efficacy (%) for individual entries
Please make sure the unit comes right after the number.

Completed entries (count: 4):
Compound	Measure	Obs value
CCCCCCCCOc1ccccc1C(=O)Nc1ccc(C(=O)OCC[N+](C)(CC)CC)cc1.[Br-]	384-well SCREEN Efficacy (%)	69%
O=C(Cc1ccc(Cl)c(Cl)c1)Nc1ccc(S(=O)(=O)Nc2nnc(-c3ccccn3)s2)cc1.O=C(O)C(F)(F)F	384-well SCREEN Efficacy (%)	44%
O=C1C(I)=CC(=C(c2cc(I)c([O-])c(I)c2)c2ccccc2C(=O)[O-])C=C1I.[Na+].[Na+]	384-well SCREEN Efficacy (%)	78%
Brc1c(Br)c(Br)c2[nH]nnc2c1Br [NCGC00092352-04, 4,5,6,7-tetrabromobenzotriazole, reference compound]	384-well SCREEN Efficacy (%)	40%

Ask: Param item = CCc1ccc(/C=C2/SC(=S)NC2=O)cc1 ; retrieve measured 384-well SCREEN Efficacy (%).
Result: 44%

Ask: // lookup 384-well SCREEN Efficacy (%) for CCOC(=O)c1ccc(O)c2ncc(-c3ccc(C(=N)N)cc3)cc12.O=C(O)C(F)(F)F
Result: 87%

Ask: What value of measured 384-well SCREEN Efficacy (%) is listed for Cc1cc(F)ccc1S(=O)(=O)Nc1cnccc1C(=O)Nc1nc(-c2ccccc2)cs1 ?
Result: 46%

Ask: Would you mind telling me what 384-well SCREEN Efficacy (%) value was observed for COC(=O)[C@]12CCC(C)(C)C[C@H]1[C@H]1C(=O)C=C3[C@@]4(C)C=C(C#N)C(=O)C(C)(C)[C@@H]4CC[C@@]3(C)[C@]1(C)CC2 ?
Result: 77%
